Each entry below carries its recorded Population Pyknosed Nuclei (%).
- Tested on: U2OS
- protocol.notes: Multiplex assay against U2OS
- Assay type: toxicity, cell-based
- run.conditions: human, 48 h, 1 µM, compound concentration 1 uM, replicate 1
# value in %; strip the unit string

Consider the worked cases shown below.
compound | Population Pyknosed Nuclei (%)
CC(C)(O)C(=O)N1CCN(c2ccc(C(F)(F)F)c(C3=C(c4c[nH]c5ccccc45)C(=O)NC3=O)c2)CC1 | 12
CSc1nc(NC2CCCC2)c([N+](=O)[O-])c(NC2CCCC2)n1 [GS-39783] | 11
Cc1cc(O)c(-c2ccc([C@@H](C)CN(C)C)cc2)c2c1[nH]c(=O)c1sccc12 | 27

Note: attention shifts to another entry.
So the reported Population Pyknosed Nuclei (%) for Cl.Cl.OCCOCCN1CCN(C(c2ccccc2)c2ccc(Cl)cc2)CC1 (centres undefined) [HYDROXYZINE HYDROCHLORIDE] , on U2OS, turned out to be 13

====

- Test system: U2OS
- protocol.notes: Multiplex assay against U2OS
- Format: toxicity, cell-based
- run.conditions: human, 48 h, 1 µM, compound concentration 1 uM, replicate 1
endpoint.name: Population Tubulin-Different-Phenotype (%)
Number in %, nothing else.

Take a look at these entries with their results.
compound | test.result
Nc1nc(-c2ccco2)c2cnn(Cc3ccccc3F)c2n1 | 2
CN1CCN(c2ccc(Nc3c4ccccc4nc4ccccc34)cc2)CC1.Cl.Cl.O | 3
CN(C)C(=O)Cn1cc(-c2ccc(-c3nnc4ccccn34)cc2)cn1 | 1

Now turn to the next compound.
Measured on U2OS, Cc1sc2c(c1C)C(c1ccc(Cl)cc1)=N[C@H](CC(=O)OC(C)(C)C)c1nnc(C)n1-2 has a documented Population Tubulin-Different-Phenotype (%) of 2

====

- System: Fibroblast
- protocol.notes: Multiplex assay against human fibroblast
- Assay type: toxicity, cell-based
- run.conditions: 24 h, 1 µM, compound concentration 1 uM, replicate 2
endpoint.name: Population Apoptotic (%)
Kindly answer with a numeric value in %, unit omitted.

substance.smiles | target.or.system | Population Apoptotic (%)
CCCCCCNC(=O)Nc1ccc(S(=O)(=O)Nc2ccc(CCNC[C@H](O)COc3ccc(O)cc3)cc2)cc1 | Fibroblast | 39

Fibroblast Population Apoptotic (%) of Cc1cc(NC(=O)NCCN2CCC(O)(Cc3ccccc3)CC2)c2ccccc2n1 is 40

The compound Nc1nc(-c2ccco2)c2cnn(Cc3ccccc3F)c2n1 , when measured on Fibroblast, yielded Population Apoptotic (%) of 56

The recorded Population Apoptotic (%) with Fibroblast for COCCn1c(C)c(C)s/c1=N\C(=O)C1C(C)(C)C1(C)C was 54

Let me check: CC(C)(C)c1ccc(CSc2cnn(C(C)(C)C)c(=O)c2Cl)cc1 , system Fibroblast, measured Population Apoptotic (%) is 36

====

- Tested on: U2OS
- protocol.notes: Multiplex assay against U2OS
- Assay type: toxicity, cell-based
- run.conditions: human, 48 h, 10 µM, compound concentration 10 uM, replicate 2
endpoint.name: Population Pyknosed Nuclei (%)
Field: value (include unit after the number)

Noted for O=C(O)CCC/C=C\CC1C(O)CC(O)C1/C=C/C(O)COc1cccc(Cl)c1 (configuration not stated) [CLOPROSTENOL] : its Population Pyknosed Nuclei (%) reads 5%

Recorded Population Pyknosed Nuclei (%) (compound CCc1nn2c(C)cc(C)nc2c1Cc1ccc(-c2nnc(C3CCNCC3)o2)cc1 ): 15%

Value of Population Pyknosed Nuclei (%) reported for the compound Cc1cc(=O)n(C)c2cc(N3C(=O)CC[C@H](NS(=O)(=O)CC(C)C)[C@H]3c3ccc(Cl)cc3)ccc12 is 18%

Recorded result, CSc1nc(NC2CCCC2)c([N+](=O)[O-])c(NC2CCCC2)n1 [GS-39783] , Population Pyknosed Nuclei (%): 6%

Item: CC(C)C[C@H](CO)Nc1nc(S[C@@H](C)c2ccccc2)nc2nc(N)sc12 [AZD-8797] | Population Pyknosed Nuclei (%): 12%

The compound listed as COc1ccc2[nH]c(I)c(CCNC(C)=O)c2c1 [IODOMELATONIN] has a reported Population Pyknosed Nuclei (%) of 5%

Just so you know, measured Population Pyknosed Nuclei (%) for CCn1c(-c2nc3cc(C(=O)N4CCCC(N)C4)ccc3n2C)cc2ccccc21.Cl (configuration not stated) came out at 16%

====

- System: HEK-293T
- protocol.notes: Multiplex assay against HEK293T
- Assay type: toxicity, cell-based
- run.conditions: human, 24 h, 10 µM, compound concentration 10 uM, replicate 1
Entries and their measured Total Cell Count follow.
Enter a number only.

These recorded examples may help you get a feel for the data.
compound | Total Cell Count
Cc1cc(NC(=O)NCCN2CCC(O)(Cc3ccccc3)CC2)c2ccccc2n1 [PALOSURAN] | 598
O=C(NCCNCC(O)COc1ccc(O)cc1)N1CCOCC1.O=C(NCCNCC(O)COc1ccc(O)cc1)N1CCOCC1.O=C(O)/C=C/C(=O)O (centres undefined) [XAMOTEROL FUMARATE] | 632
CCCCC[C@H](O)/C=C/[C@H]1[C@H](O)CC(=O)[C@@H]1CCCCCCC(=O)O [ALPROSTADIL] | 439
Cn1cc(C(=O)OCC2CCN(CCNS(C)(=O)=O)CC2)c2ccccc21 | 587
CCCCCCNC(=O)Nc1ccc(S(=O)(=O)Nc2ccc(CCNC[C@H](O)COc3ccc(O)cc3)cc2)cc1 [L-755507] | 461
CN1CCN2c3ccccc3Cc3ccccc3C2C1.Cl (centres undefined) [MIANSERIN HYDROCHLORIDE] | 486
Cc1cc(-c2ccc3c(c2)CC[C@H]3N2CC3(CCN(C(=O)Cc4cn5cc(C)sc5n4)CC3)C2)ncn1 [PF-5190457] | 638
COCCn1c(C)c(C)s/c1=N\C(=O)C1C(C)(C)C1(C)C | 101
CCC(=O)OCC(=O)[C@@]1(OC(=O)CC)[C@@H](C)C[C@H]2[C@@H]3CCC4=CC(=O)C=C[C@]4(C)[C@@]3(Cl)[C@@H](O)C[C@@]21C [BECLOMETHASONE DIPROPIONATE] | 270
CC(C)(C)c1ccc(CSc2cnn(C(C)(C)C)c(=O)c2Cl)cc1 [PYRIDABEN] | 386

Alright, here's another compound for you.
Total Cell Count reported for this compound COc1ccc2c(c1OCc1ccccc1)C[C@@H](C(=O)O)N(C(=O)C(c1ccccc1)c1ccccc1)C2 [OLODANRIGAN] : 456

====

Below, each of the molecules is paired with its reported Population Mitotic Cells (%) value.
- Tested on: Fibroblast
- protocol.notes: Multiplex assay against human fibroblast
- Assay type: toxicity, cell-based
- run.conditions: 24 h, 10 µM, compound concentration 10 uM, replicate 2
Numbers only here, please. The scale is %.

Here is how some molecules turned out for Population Mitotic Cells (%).
molecule | scale.unit | Population Mitotic Cells (%)
CN(C)C(=O)Cn1cc(-c2ccc(-c3nnc4ccccn34)cc2)cn1 | % | 73
Cc1nn(C)c2nc(NNC(=O)Nc3cc(Cl)nc(Cl)c3)cc(C(C)C)c12 | % | 75
O=C(NCCNCC(O)COc1ccc(O)cc1)N1CCOCC1.O=C(NCCNCC(O)COc1ccc(O)cc1)N1CCOCC1.O=C(O)/C=C/C(=O)O (stereo unspecified) [XAMOTEROL FUMARATE] | % | 57
CCCCC[C@H](O)/C=C/[C@H]1[C@H](O)CC(=O)[C@@H]1CCCCCCC(=O)O [ALPROSTADIL] | % | 69
Nc1nc(-c2ccco2)c2cnn(Cc3ccccc3F)c2n1 | % | 56

Attention now shifts to the item below.
The molecule listed as CCC(=O)OCC(=O)[C@@]1(OC(=O)CC)[C@@H](C)C[C@H]2[C@@H]3CCC4=CC(=O)C=C[C@]4(C)[C@@]3(Cl)[C@@H](O)C[C@@]21C [BECLOMETHASONE DIPROPIONATE] has a reported Population Mitotic Cells (%) of 80

====

- System: U2OS
- protocol.notes: Multiplex assay against U2OS
- Assay type: toxicity, cell-based
- run.conditions: human, 12 h, 10 µM, compound concentration 10 uM, replicate 1
Non-standard residues stand in square brackets, D forms with d. Residues, ends and D or L forms follow the SMILES beside them.
Simple rule here: Population Mitotic Cells (%) less than 30% is 1, otherwise -1.

Solved cases below.
compound | answer.label
CN1CCN(c2ccc(Nc3c4ccccc4nc4ccccc34)cc2)CC1.Cl.Cl.O | 1
CC(C)C[C@@H]1NC(=O)[C@@H](C(C)C)NC(=O)[C@@H]2CCCN2C(=O)[C@@H](CC(=O)O)NC(=O)[C@@H](Cc2c[nH]c3ccccc23)NC1=O [BQ-123] (cyclo(L[dW][dD]P[dV])) | 1
COc1c(Nc2ccc(S(C)(=O)=O)nc2C)ncnc1OC1CCN(C(=O)OC(C)C)CC1 | 1
CCn1c(-c2nc3cc(C(=O)N4CCCC(N)C4)ccc3n2C)cc2ccccc21.Cl (configuration not stated) | -1
S=C(NCCCc1c[nH]cn1)NCCCN(Cc1ccc(Cl)c(Cl)c1)c1ccc(Br)cn1 | -1

Determine if CC(C)(C)c1ccc(CSc2cnn(C(C)(C)C)c(=O)c2Cl)cc1 shows Population Mitotic Cells (%) strictly lower than 30%.
1

Take the compound Cc1cc(=O)n(C)c2cc(N3C(=O)CC[C@H](NS(=O)(=O)CC(C)C)[C@H]3c3ccc(Cl)cc3)ccc12 and say whether its Population Mitotic Cells (%) is less than 30%.
-1

Threshold test, Population Mitotic Cells (%) < 30%: COc1cc(OC2CCN(C(C)=O)CC2)ccc1C(=O)N1CCC(N2C(=O)OCc3ccccc32)CC1
1

Find out if reported Population Mitotic Cells (%) for O=C(Nc1cc(-c2ccccc2)nn1-c1ccccc1F)c1ccc([N+](=O)[O-])cc1 is less than 30%
-1

Could you please tell me whether Population Mitotic Cells (%) recorded for CN(C)C(=O)Cn1cc(-c2ccc(-c3nnc4ccccn34)cc2)cn1 is less than 30%?
1

Criterion: Population Mitotic Cells (%) strictly below 30%. Is it met by OCCCNc1cc(-c2ccnc(Nc3cccc(Cl)c3)n2)ccn1 ?
1

Find out if reported Population Mitotic Cells (%) for O=C(O)CCC/C=C\CC1C(O)CC(O)C1/C=C/C(O)COc1cccc(Cl)c1 (configuration not stated) is less than 30%
1

Strictly below 30%: is that where Population Mitotic Cells (%) of CSc1nc(NC2CCCC2)c([N+](=O)[O-])c(NC2CCCC2)n1 sits?
1

Please state whether Population Mitotic Cells (%) is below 30% for CN(C)C/C=C/C(=O)Nc1ccc(C(=O)N2CCCC(Nc3ncc(Cl)c(-c4c[nH]c5ccccc45)n3)C2)cc1 (configuration not stated)
1

hey, is Population Mitotic Cells (%) for Cc1sc2c(c1C)C(c1ccc(Cl)cc1)=N[C@H](CC(=O)OC(C)(C)C)c1nnc(C)n1-2 lower than 30% or not?
-1

Does this compound meet the criterion Population Mitotic Cells (%) < 30%? C[C@@H]1CC(=O)Nc2cccc(-c3ccc4c(c3)c(-c3cnn(C)c3)nn4C)c2N1
1
